Target: rat brain cortical membranes ([35S]-TBPS binding; GABAA receptor)
Assay: Steroid inhibition of [35S]-TBPS binding (radioligand displacement)
Settings: 3 nM [35S]-TBPS, in the presence of 5 μM GABA, 90 min at room temp
pIC50: −log10 of the molar value.
Property: pIC50

query: Sample C[C@H](C(=O)[C@H]1CC[C@H]2[C@@H]3CC[C@@H]4C[C@](C)(O)CC[C@@H]4[C@H]3CC[C@]12C)n1nccn1 [Compound 1] — what was its pIC50?
result: 6.30 to 6.60

query: Sample C[C@@H](C(=O)[C@H]1CC[C@H]2[C@@H]3CC[C@@H]4C[C@](C)(O)CC[C@@H]4[C@H]3CC[C@]12C)n1nc2ccccc2n1 [Compound 6] — what was its pIC50?
result: > 7.30

---

Target: rat brain cortical membranes ([35S]-TBPS binding; GABAA receptor)
Assay: Steroid inhibition of [35S]-TBPS binding (radioligand displacement)
Settings: 3 nM [35S]-TBPS, in the presence of 5 μM GABA, 90 min at room temp
Property: IC50

Sample answers from the record:
C[C@@H](C(=O)[C@H]1CC[C@H]2[C@@H]3CC[C@@H]4C[C@](C)(O)CC[C@@H]4[C@H]3CC[C@]12C)n1nccn1 [Compound 2] | 50 to 100 nM
C[C@H](C(=O)[C@H]1CC[C@H]2[C@@H]3CC[C@@H]4C[C@](C)(O)CC[C@@H]4[C@H]3CC[C@]12C)n1nc2ccccc2n1 [Compound 7] | 250 to 500 nM
C[C@H](C(=O)[C@H]1CC[C@H]2[C@@H]3CC[C@@H]4C[C@](C)(O)CC[C@@H]4[C@H]3CC[C@]12C)n1cc(C#N)cn1 [Compound 4] | 50 to 100 nM
C[C@@H](C(=O)[C@H]1CC[C@H]2[C@@H]3CC[C@@H]4C[C@](C)(O)CC[C@@H]4[C@H]3CC[C@]12C)n1cc(C#N)cn1 [Compound 3] | < 50 nM

Consider the additional compound presented here.
query: Sample CC(C(=O)[C@H]1CC[C@H]2[C@@H]3CC[C@@H]4C[C@](C)(O)CC[C@@H]4[C@H]3CC[C@]12C)N1CCOCC1 (some centres unmarked) [Compound 5] — what was its IC50?
result: 250 to 500 nM
